Data origin, for the record: paper PMC11434067

Exercise: for every item that follows, state its recorded pIC50.
Notebook: values listed as pIC50 are -log10 of the concentration (mol/L).

Case O=C(O)c1ccc(O)c(O)c1 , XO (Bos taurus), pIC50 recorded as 3.19

Case O=C(/C=C/c1ccc(O)c(O)c1)O[C@@H]1C[C@](O)(C(=O)O)C[C@@H](O)[C@H]1O , XO (Bos taurus), pIC50 recorded as 3.53

Case O=C(O)c1ccccc1 , XO (Bos taurus), pIC50 recorded as 3.98

---

Recorded below: IC50, system XO (Bos taurus).
Please state the figure in µM; there is no need to write the unit.

Case CCOC(=O)[C@]1(O)C[C@@H](O)[C@@H](O)[C@H](OC(=O)/C=C/c2ccc(O)c(O)c2)C1 [compound 3, ethyl chlorogenate] , XO (Bos taurus), IC50 recorded as 450

Case CCCCOC(=O)C1(O)CC(O)C(O)C(OC(=O)C=Cc2ccc(O)c(O)c2)C1 (stereo not drawn) [compound 2, butyl chlorogenate] , XO (Bos taurus), IC50 recorded as 399

Case COC(=O)[C@]1(O)C[C@@H](O)[C@@H](O)[C@H](OC(=O)/C=C/c2ccc(O)c(O)c2)C1 [compound 1, methyl chlorogenate] , XO (Bos taurus), IC50 recorded as 425
